Origin of values: patent US9145392B2

# IC50 per record follows
target: His-AKT (Full Length) (Homo sapiens (Human), UniProt P31749); experiment: AKT enzyme assay; format: biochemical; settings: read-out: IC50 AKT
Sequence (P31749 whole entry): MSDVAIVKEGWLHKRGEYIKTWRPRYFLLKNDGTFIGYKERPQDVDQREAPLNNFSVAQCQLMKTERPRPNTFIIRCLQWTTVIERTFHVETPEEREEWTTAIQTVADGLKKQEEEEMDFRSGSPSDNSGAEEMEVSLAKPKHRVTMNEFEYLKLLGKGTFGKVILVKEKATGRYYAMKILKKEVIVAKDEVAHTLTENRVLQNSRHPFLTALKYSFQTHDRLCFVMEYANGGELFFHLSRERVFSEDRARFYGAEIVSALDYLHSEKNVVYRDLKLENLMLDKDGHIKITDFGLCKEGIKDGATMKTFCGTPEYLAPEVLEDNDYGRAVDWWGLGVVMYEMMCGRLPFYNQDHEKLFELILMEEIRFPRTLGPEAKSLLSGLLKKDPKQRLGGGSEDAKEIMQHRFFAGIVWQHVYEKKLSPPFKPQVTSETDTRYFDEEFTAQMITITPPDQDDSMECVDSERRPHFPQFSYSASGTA
MEASUREMENT_KIND: IC50 (nM)

{"columns": ["COMPOUND_STRING", "MEASUREMENT_KIND", "ENDPOINT_RESULT"],
 "data": [
  ["Nc1ncnc(N2CCC(c3nc(-c4ccc(F)c(C(F)(F)F)c4)cn3CCN3CCCC3)CC2)c1-c1ccc(C(=O)O)cc1", "IC50", 12],
  ["Cn1cc(-c2ccc(F)c(C(F)(F)F)c2)nc1C1CCN(c2ncnc(N)c2-c2ccc(F)cc2)CC1", "IC50", 2200],
  ["C=Cc1c(N)ncnc1N1CCC(c2nc(-c3cccc(F)c3)cn2CCN2CCCC2)CC1", "IC50", 21],
  ["CCC(C)(C)NCCn1cc(-c2ccc(F)c(C(F)(F)F)c2)nc1C1CCN(c2ncnc(N)c2C(N)=O)CC1", "IC50", 13]
]}
